Form field: Biochem EGFR %Inhibition (one value per entry).
SYSTEM_NAME: EGFR (Homo sapiens, UniProt P00533)
Construct: Add 7 ug A431 cell lysate per well (EGFR source); endogenous in cells; host or cells: A431
Sequence (P00533 25-1210): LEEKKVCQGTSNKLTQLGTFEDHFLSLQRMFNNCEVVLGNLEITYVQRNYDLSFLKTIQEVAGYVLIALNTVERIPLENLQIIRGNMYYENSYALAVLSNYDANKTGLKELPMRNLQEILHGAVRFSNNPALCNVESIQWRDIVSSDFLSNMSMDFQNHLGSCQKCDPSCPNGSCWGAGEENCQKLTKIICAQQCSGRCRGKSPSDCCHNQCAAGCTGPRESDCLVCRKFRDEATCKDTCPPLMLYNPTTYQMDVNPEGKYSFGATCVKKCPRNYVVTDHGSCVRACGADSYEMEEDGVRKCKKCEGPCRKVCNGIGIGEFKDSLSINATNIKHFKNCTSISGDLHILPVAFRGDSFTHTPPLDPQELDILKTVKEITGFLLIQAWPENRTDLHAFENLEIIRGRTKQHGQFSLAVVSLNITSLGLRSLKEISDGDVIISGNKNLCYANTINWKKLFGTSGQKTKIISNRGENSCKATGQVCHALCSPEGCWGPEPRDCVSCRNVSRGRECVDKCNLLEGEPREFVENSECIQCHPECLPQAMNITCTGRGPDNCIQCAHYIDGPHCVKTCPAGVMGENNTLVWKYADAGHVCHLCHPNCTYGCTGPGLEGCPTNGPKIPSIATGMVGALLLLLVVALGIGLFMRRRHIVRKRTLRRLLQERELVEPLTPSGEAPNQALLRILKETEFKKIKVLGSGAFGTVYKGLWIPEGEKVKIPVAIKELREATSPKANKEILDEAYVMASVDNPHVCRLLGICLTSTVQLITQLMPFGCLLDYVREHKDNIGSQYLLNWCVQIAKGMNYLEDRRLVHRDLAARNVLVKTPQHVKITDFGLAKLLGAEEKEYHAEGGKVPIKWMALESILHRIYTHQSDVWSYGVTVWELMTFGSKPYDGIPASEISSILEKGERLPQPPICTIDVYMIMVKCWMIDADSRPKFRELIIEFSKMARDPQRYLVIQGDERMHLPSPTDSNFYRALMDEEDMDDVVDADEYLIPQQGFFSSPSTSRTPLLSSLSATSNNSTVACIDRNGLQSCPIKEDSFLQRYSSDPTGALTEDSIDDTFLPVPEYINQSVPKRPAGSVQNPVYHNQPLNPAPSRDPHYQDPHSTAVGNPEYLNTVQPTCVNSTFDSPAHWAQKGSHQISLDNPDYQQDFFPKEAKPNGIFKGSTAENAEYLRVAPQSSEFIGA
PROTOCOL: EGFR ELISA assay (in vitro kinase activity, EGFR captured from A431 cell lysate)
Assay type: biochemical
Design: concentration or dose not given beside the values
MEASURED_ENDPOINT: Biochem EGFR %Inhibition (%)

| INPUT_SMILES | MEASURED_ENDPOINT | READOUT_UNITS | READOUT_NUMBER |
| --- | --- | --- | --- |
| Cc1cc(C=C2C(=O)Nc3ccc(CCCl)cc32)sc1C | Biochem EGFR %Inhibition | % | 64.6 |
| CCOc1cccc(C=C2C(=O)Nc3ccc(I)cc32)c1O | Biochem EGFR %Inhibition | % | -8.9 |
| O=C1Nc2ccc(S(=O)(=O)Nc3ccc(C(F)(F)F)cc3)cc2C1=Cc1cccc([N+](=O)[O-])c1 | Biochem EGFR %Inhibition | % | -32.4 |
| O=C1Nc2c(Br)cc(Br)cc2C1=Cc1ccc(Cl)s1 | Biochem EGFR %Inhibition | % | 35.2 |
| O=C1Nc2c(Br)cc(Br)cc2C1=Cc1ccc(N2CCOCC2)cc1 | Biochem EGFR %Inhibition | % | 10.9 |
| COc1cc(C)cc(O)c1C=C1C(=O)Nc2ccc(S(=O)(=O)Nc3ccc(C(F)(F)F)cc3)cc21 | Biochem EGFR %Inhibition | % | -17.7 |
| CNS(=O)(=O)c1ccc2c(c1)C(=Cc1ccc(OC(C)=O)c(OC(C)=O)c1)C(=O)N2 | Biochem EGFR %Inhibition | % | 3.7 |
| COc1ccc(O)c(C=C2C(=O)Nc3ccc(S(=O)(=O)N4CCOCC4)cc32)c1 | Biochem EGFR %Inhibition | % | 6.0 |
| O=C1Nc2ccc(I)cc2C1=Cc1ccc(Br)cc1 | Biochem EGFR %Inhibition | % | 60.5 |
| O=C1Nc2c(Br)cc(Br)cc2C1=Cc1ccc(O)cc1O | Biochem EGFR %Inhibition | % | -2.1 |
| COc1ccc(OC)c(C=C2C(=O)Nc3ccc(S(=O)(=O)Nc4ccc(C(F)(F)F)cc4)cc32)c1 | Biochem EGFR %Inhibition | % | 7.4 |
| O=C1Nc2ccc(S(=O)(=O)Nc3ccc(C(F)(F)F)cc3)cc2C1=Cc1cccnc1 | Biochem EGFR %Inhibition | % | 40.1 |
| O=C1Nc2ccc(S(=O)(=O)N3CCOCC3)cc2C1=Cc1ccc(-c2ccccc2Cl)o1 | Biochem EGFR %Inhibition | % | 27.3 |
| CNS(=O)(=O)c1ccc2c(c1)C(=Cc1ccc(OC)cc1)C(=O)N2 | Biochem EGFR %Inhibition | % | -6.3 |
| COc1cc(C=C2C(=O)Nc3ccc(Br)c(C)c32)cc(OC)c1OC | Biochem EGFR %Inhibition | % | 0.1 |
| O=C1Nc2ccccc2C1=C1C(=O)Nc2c(Br)cc(Br)cc21 | Biochem EGFR %Inhibition | % | -6.3 |
| O=CN1CCN(c2ccc(C=C3C(=O)Nc4ccc(I)cc43)cc2)CC1 | Biochem EGFR %Inhibition | % | 45.8 |
| CNS(=O)(=O)c1ccc2c(c1)C(=Cc1ccncc1)C(=O)N2 | Biochem EGFR %Inhibition | % | 22.1 |
| O=C1Nc2ccc(I)cc2C1=Cc1sccc1Br | Biochem EGFR %Inhibition | % | 2.5 |
| COc1cc(Br)c(O)c(C=C2C(=O)Nc3ccc(Br)c(C)c32)c1 | Biochem EGFR %Inhibition | % | 41.3 |
| O=C1Nc2ccc(S(=O)(=O)Nc3ccc(C(F)(F)F)cc3)cc2C1=Cc1ccc(F)cc1 | Biochem EGFR %Inhibition | % | 22.4 |
| Cn1cccc1C=C1C(=O)Nc2ccc(S(=O)(=O)N3CCOCC3)cc21 | Biochem EGFR %Inhibition | % | -15.7 |
| CCN(CC)c1ccc(C=C2C(=O)Nc3ccc(Br)c(C)c32)c(O)c1 | Biochem EGFR %Inhibition | % | 9.3 |
| COc1ccc(C=C2C(=O)Nc3ccc(I)cc32)cc1C(C)(C)C | Biochem EGFR %Inhibition | % | 17.0 |
| O=C1Nc2ccc(CCCl)cc2C1=Cc1ccccc1 | Biochem EGFR %Inhibition | % | -10.4 |
| CNS(=O)(=O)c1ccc2c(c1)C(=Cc1ccc(F)cc1Cl)C(=O)N2 | Biochem EGFR %Inhibition | % | -3.1 |
| O=C1Nc2ccc(S(=O)(=O)Nc3ccc(C(F)(F)F)cc3)cc2C1=Cc1cccc(C(F)(F)F)c1F | Biochem EGFR %Inhibition | % | 21.8 |
| O=C1Nc2ccc(I)cc2C1=Cc1cc([N+](=O)[O-])ccc1O | Biochem EGFR %Inhibition | % | 11.8 |
| CC(C)(C)c1cc(C=C2C(=O)Nc3ccc(CCCl)cc32)c(O)c(C(C)(C)C)c1 | Biochem EGFR %Inhibition | % | -35.0 |
| CNS(=O)(=O)c1ccc2c(c1)C(=Cc1ccc(O)cc1)C(=O)N2 | Biochem EGFR %Inhibition | % | 13.7 |
| Cc1c(Br)ccc2c1C(=Cc1ccc([N+](=O)[O-])c(O)c1)C(=O)N2 | Biochem EGFR %Inhibition | % | 13.2 |
| Cc1c(Br)ccc2c1C(=Cc1cccc([N+](=O)[O-])c1)C(=O)N2 | Biochem EGFR %Inhibition | % | 10.7 |
| COc1ccc2ccccc2c1C=C1C(=O)Nc2ccc(CCCl)cc21 | Biochem EGFR %Inhibition | % | -4.8 |
| CNS(=O)(=O)c1ccc2c(c1)C(=Cc1cc([N+](=O)[O-])ccc1O)C(=O)N2 | Biochem EGFR %Inhibition | % | 46.8 |
| CNS(=O)(=O)c1ccc2c(c1)C(=Cc1sccc1Br)C(=O)N2 | Biochem EGFR %Inhibition | % | -23.9 |
| COc1ccc(C=C2C(=O)Nc3c(Br)cc(Br)cc32)c2ccccc12 | Biochem EGFR %Inhibition | % | 27.0 |

The reported measurements were obtained from patent EP1247803A2.
